Biological target: P. falciparum apicoplast DNA polymerase (Pf-apPOL) (Plasmodium falciparum)
Sequence (Q8ILY1 entry or part of it): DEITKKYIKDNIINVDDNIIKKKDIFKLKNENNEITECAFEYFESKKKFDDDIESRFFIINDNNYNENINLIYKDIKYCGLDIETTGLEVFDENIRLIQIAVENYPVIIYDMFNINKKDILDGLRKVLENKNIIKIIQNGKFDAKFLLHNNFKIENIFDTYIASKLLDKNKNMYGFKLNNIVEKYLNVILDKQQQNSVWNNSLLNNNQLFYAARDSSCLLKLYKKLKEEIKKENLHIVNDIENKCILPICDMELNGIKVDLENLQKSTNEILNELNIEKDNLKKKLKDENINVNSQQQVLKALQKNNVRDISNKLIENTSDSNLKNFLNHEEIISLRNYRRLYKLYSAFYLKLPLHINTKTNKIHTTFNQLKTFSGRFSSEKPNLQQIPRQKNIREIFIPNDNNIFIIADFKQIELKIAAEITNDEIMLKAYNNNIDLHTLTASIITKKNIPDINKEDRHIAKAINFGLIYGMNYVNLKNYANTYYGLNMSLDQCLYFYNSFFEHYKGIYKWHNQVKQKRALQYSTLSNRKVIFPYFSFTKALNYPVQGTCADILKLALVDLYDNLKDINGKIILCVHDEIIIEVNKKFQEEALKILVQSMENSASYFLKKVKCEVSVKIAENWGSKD
Assay: Fluorescence-based high-throughput DNA polymerase assay (molecular beacon), primary screen and dose-response
Type: biochemical
Conditions: DRC-1; 90'; concentration 80
In this section, each of the molecules is paired with its reported % inhibition Apol 90'.
Answer in %, number only, no unit symbol.

Some entries whose results are on file:
O=[N+]([O-])/C=C/c1ccc(-c2ccc(Br)cc2)o1 [Molecule 31, O=N(=O)/C=C/c1ccc(o1)c1ccc(cc1)Br]; 80.1627
CCOc1ccc(/C=C2\N=C(c3cc([N+](=O)[O-])cc([N+](=O)[O-])c3)OC2=O)cc1 [Molecule 97]; 94.5175

The value of % inhibition Apol 90' measured for the molecule CC(=O)Nc1cc(C(=O)NC(C)C)c2ccc(C)nc2c1 [KU0206312] turned out to be 84.495

The value of % inhibition Apol 90' measured for the molecule CN(C)S(=O)(=O)Oc1ccc(-c2noc(-c3ccc(Oc4cc(Cl)cc(Cl)c4)o3)n2)cc1 [KU0263859] turned out to be 82.3525

The value of % inhibition Apol 90' measured for the molecule Cc1ncc(CSc2nc(C(C)(C)C)cs2)c(CO)c1O [KU0264007] turned out to be 54.4417

The value of % inhibition Apol 90' measured for the molecule NC(=O)c1cc[n+](CC2=C(C(=O)[O-])N3C(=O)[C@@H](NC(=O)[C@@H](c4ccccc4)S(=O)(=O)[O-])[C@H]3SC2)cc1.[Na+] [Molecule 9] turned out to be 97.5161

The value of % inhibition Apol 90' measured for the molecule Cn1nc(C(=O)N2CCc3c(nc4cc(-c5ccccc5)[nH]n4c3=O)C2)c2ccccc21 [Molecule 18] turned out to be 54

The value of % inhibition Apol 90' measured for the molecule Cc1ccc(C(=O)/C=C/C=C/C=C/N(C)C)o1 [Molecule 96, CN(/C=C/C=C/C=C/C(=O)c1ccc(o1)C)C] turned out to be 69.2174
